molecular target: Tubulin; test: Inhibition of tubulin polymerization (unknown origin) measured upto 4500 secs by fluorescence based analysis; type: protein-complex assay, Homo sapiens
ATTRIBUTE MEASURED: IC50 (nM)
Hi! Could you send only the number? It should be in nM, unit omitted.

Query: IC50; subject: COc1ccc(CN(C(=O)Cn2cc(CSc3nc4ccccc4s3)nn2)c2cc(OC)c(OC)c(OC)c2)cc1O
446

----------
tested on: KYSE-30; test: Antiproliferative activity against human KYSE-30 cells assessed as inhibition of cell growth measured after 48 hrs by CCK8 method; type: functional, cell-based; conditions: KYSE-30, 48 h
The entries below are paired with their reported IC50.

These solved cases illustrate the format of a correct answer.
COc1cc(N(Cc2nc3ccccc3[nH]2)C(=O)Cn2cc(CSc3nc4ccccc4s3)nn2)cc(OC)c1OC ... 56.8 µM
COc1ccc(CN(C(=O)Cn2cc(CSc3nc4ccccc4s3)nn2)c2cc(OC)c(OC)c(OC)c2)cc1F ... 0.76 µM
COc1cc(N(Cc2c(C)noc2C)C(=O)Cn2cc(CSc3nc4ccccc4s3)nn2)cc(OC)c1OC ... > 80 µM
COc1ccc(CN(C(=O)Cn2cc(CSc3nc4ccccc4s3)nn2)c2cc(OC)c(OC)c(OC)c2)cc1[N+](=O)[O-] ... 12.1 µM
COc1ccc(CN(C(=O)Cn2cc(CSc3nc4ccc(Br)cc4s3)nn2)c2cc(OC)c(OC)c(OC)c2)cc1O ... 0.049 µM

Find the recorded IC50 belonging to COc1ccc(CN(C(=O)Cn2cc(CSc3nc4c(C)cccc4s3)nn2)c2cc(OC)c(OC)c(OC)c2)cc1O and report it.
0.067 µM

Which IC50 is reported for this compound? COc1ccc(CN(C(=O)Cn2cc(CSc3nc4ccccc4s3)nn2)c2cc(OC)c(OC)c(OC)c2)cc1O
0.042 µM

Recorded IC50 of COc1ccc(CN(C(=O)Cn2cc(CSc3nc4ccccc4s3)nn2)c2ccccc2)cc1 , please.
62.2 µM

----------
test system: PC-3; experiment: Antiproliferative activity against human PC-3 cells assessed as inhibition of cell growth measured after72 hrs by MTT assay; type: functional, cell-based
ATTRIBUTE MEASURED: IC50
Note to self: number, then unit, no commentary.

Would you kindly share the measured IC50 for COc1cc(N(Cc2c(C)noc2C)C(=O)CSc2nc3ccccc3s2)cc(OC)c1OC ?
2.04 µM

----------
tested on: KYSE-30; assay: Antiproliferative activity against human KYSE-30 cells assessed as inhibition of cell growth measured after 48 hrs by CCK8 method; assay type: functional, cell-based; settings: KYSE-30, 48 h
ATTRIBUTE MEASURED: IC50 (µM)
A number alone suffices; assume µM.

COc1ccc(CN(C(=O)Cn2cc(CSc3nc4ccccc4s3)nn2)c2cc(OC)c(OC)c(OC)c2)cc1Br ... 1.14

For the compound shown here, COc1ccc(CN(C(=O)Cn2cc(CSc3nc4ccccc4s3)nn2)c2ccc(OC)cc2)cc1 , give the reported IC50.
28.3
